Target: human β2-adrenoceptor (Homo sapiens, UniProt P07550, E27Q/G16R)
Construct: expressed in transfected cells; host or cells: CHO cells (transient transfection, Lipofectamine 2000)
Sequence (P07550 whole entry G16R/E27Q): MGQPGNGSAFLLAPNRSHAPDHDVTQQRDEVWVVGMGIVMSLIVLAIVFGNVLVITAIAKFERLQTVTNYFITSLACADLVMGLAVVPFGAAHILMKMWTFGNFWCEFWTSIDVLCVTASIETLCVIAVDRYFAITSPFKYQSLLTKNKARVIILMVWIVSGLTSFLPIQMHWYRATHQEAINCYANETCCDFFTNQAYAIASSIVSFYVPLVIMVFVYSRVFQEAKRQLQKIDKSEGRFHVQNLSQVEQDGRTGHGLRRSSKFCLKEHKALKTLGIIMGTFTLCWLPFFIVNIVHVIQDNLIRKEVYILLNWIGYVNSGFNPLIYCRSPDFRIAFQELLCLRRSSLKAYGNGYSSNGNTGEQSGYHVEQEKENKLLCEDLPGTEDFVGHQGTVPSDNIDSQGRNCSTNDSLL
Experiment: Measurement of agonistic activities on human β2-adrenoceptor (cAMP accumulation in transfected CHO cells)
Assay type: cell-based
Settings: CHO cells expressing human β2-adrenoceptor; maximum reaction relative to isoproterenol (100%); read-out: β2 receptor I.A. (intrinsic activity)
Items are presented alongside their recorded Emax.
# value in %; strip the unit string

Challenge: What does the record list as Emax for CS(=O)(=O)Nc1cc([C@@H](O)CNCCOc2ccc(-c3ccc(C(=O)O)c(C(=O)O)c3)cc2)ccc1O ?
Response given: 61

Challenge: Lookup O=C(O)c1cccc(-c2cccc(OCCNC[C@H](O)c3cccc(Cl)c3)c2)c1 [comparison, reference compound]
Response given: 15

Challenge: Lookup CCOc1cc(-c2ccc(OCCNC[C@H](O)c3ccc(O)c(NS(C)(=O)=O)c3)cc2)ccc1C(=O)O
Response given: 27

Challenge: Lookup Cc1cc(-c2ccc(OCC(=O)O)cc2)cc(C)c1OCCN[C@@H](C)[C@H](O)c1ccc(O)c(NS(C)(=O)=O)c1
Response given: 60

###

Items are presented alongside their recorded Emax.
Molecular target: human β3-adrenoceptor (Homo sapiens)
Construct: SK—N-MC cells (American Type Culture Collection, 1×10^5cell/mL) were put in 96 well plates; host or cells: SK-N-MC cells
Test: Measurement of agonistic activities on human β3-adrenoceptor (cAMP accumulation in SK-N-MC cells)
Format: cell-based
Conditions: SK-N-MC cells; maximum reaction relative to maximum reaction of isoproterenol (100%); read-out: β3 receptor I.A. (intrinsic activity)
# value in %; strip the unit string

Example cases with answers are listed next.
In [3]: df
Out[3]:
                                   molecule                     target_under_test  measured_number
0  O=C(O)c1cccc(-c2cccc(OCCNC[C@H](O)c3cccc(Cl)c3)c2)c1 [comparison, reference compound]  human β3-adrenoceptor (Homo sapiens)               27
1  CS(=O)(=O)Nc1cc([C@@H](O)CNCCOc2ccc(-c3ccc(C(=O)O)c(C(=O)O)c3)cc2)ccc1O  human β3-adrenoceptor (Homo sapiens)              154
2  CCOc1cc(-c2ccc(OCCNC[C@H](O)c3ccc(O)c(NS(C)(=O)=O)c3)cc2)ccc1C(=O)O  human β3-adrenoceptor (Homo sapiens)              112

Let's switch to this molecule now.
Challenge: Provide the documented Emax with human β3-adrenoceptor (Homo sapiens) as the system for Cc1cc(-c2ccc(OCC(=O)O)cc2)cc(C)c1OCCN[C@@H](C)[C@H](O)c1ccc(O)c(NS(C)(=O)=O)c1
Response given: 222

###

Molecular target: human β3-adrenoceptor (Homo sapiens, UniProt P13945)
Construct: SK—N-MC cells (American Type Culture Collection, 1×10^5cell/mL) were put in 96 well plates
Sequence (P13945 whole entry): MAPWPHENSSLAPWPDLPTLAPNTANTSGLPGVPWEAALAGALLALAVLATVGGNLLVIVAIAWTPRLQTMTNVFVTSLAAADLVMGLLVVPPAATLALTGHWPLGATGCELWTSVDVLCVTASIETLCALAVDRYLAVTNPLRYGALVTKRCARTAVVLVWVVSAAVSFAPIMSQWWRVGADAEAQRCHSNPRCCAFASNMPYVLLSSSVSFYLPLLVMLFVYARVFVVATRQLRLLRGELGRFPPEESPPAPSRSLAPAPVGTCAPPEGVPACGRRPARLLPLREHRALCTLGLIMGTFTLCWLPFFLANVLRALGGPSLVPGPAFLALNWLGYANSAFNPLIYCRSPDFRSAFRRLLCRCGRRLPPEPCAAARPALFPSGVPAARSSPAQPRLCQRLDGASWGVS
Assay: Measurement of agonistic activities on human β3-adrenoceptor (cAMP accumulation in SK-N-MC cells)
Conditions: SK-N-MC cells with CGP-20712A; cAMP; concentration giving 50% of the maximum reaction of isoproterenol; read-out: β3 receptor EC50
Description: Measurement of Agonistic Activities on Human β3-Adrenoceptor Test compounds were dissolved in 50% dimethyl sulfoxide to make a 10^−2 M solution. Then, a series of 1:10 dilutions containing a maximal dose of 1×10^−4 M were prepared using D-PBS (−) (Gibco-BRL: LIFE TECHNOLOGIES). The series were used for a testing sample to measure activity. […] In addition, the ratio of the maximum reaction of the test compound against the maximum reaction of isoproterenol was calculated as an intrinsic activity (I.A.). […]
Items are presented alongside their recorded pEC50.
Quick note: pEC50 means taking -log10 of the concentration in moles per liter.

Example cases with answers are listed next.
In [3]: df
Out[3]:
                  compound_structure_string                         target_under_test  measured_number
0  CS(=O)(=O)Nc1cc([C@@H](O)CNCCOc2ccc(-c3ccc(C(=O)O)c(C(=O)O)c3)cc2)ccc1O  human β3-adrenoceptor (Homo sapiens, UniProt P13945)             7.24
1  CCOc1cc(-c2ccc(OCCNC[C@H](O)c3ccc(O)c(NS(C)(=O)=O)c3)cc2)ccc1C(=O)O  human β3-adrenoceptor (Homo sapiens, UniProt P13945)             7.71

Let's switch to this molecule now.
Challenge: What does the record list as pEC50 for Cc1cc(-c2ccc(OCC(=O)O)cc2)cc(C)c1OCCN[C@@H](C)[C@H](O)c1ccc(O)c(NS(C)(=O)=O)c1 ?
Response given: 7.85
